Data origin: the NIST ThermoML archive (doi:10.1016/j.jct.2011.08.017)

Listed here: items and their measured Molar enthalpy of transition or fusion.
- test-description: Molar enthalpy of transition or fusion
- assay-conditions: Crystal; DSC
endpoint: Molar enthalpy of transition or fusion (kcal/mol)

[
  {
    "smiles-text": "Cn1cnc(Cl)c1Cl",
    "numeric-value": 4.06
  },
  {
    "smiles-text": "c1c[nH]cn1",
    "numeric-value": 3.13
  },
  {
    "smiles-text": "Cn1cnc(C#N)c1C#N",
    "numeric-value": 3.54
  },
  {
    "smiles-text": "Clc1nc[nH]c1Cl",
    "numeric-value": 4.21
  },
  {
    "smiles-text": "Cn1ccnc1",
    "numeric-value": 2.94
  },
  {
    "smiles-text": "N#Cc1nc[nH]c1C#N",
    "numeric-value": 5.4
  }
]
